// data source = patent US11045457B2

Form field: SSTR4 Binding pIC50 (one value per entry).
target: SSTR4 (Homo sapiens (Human)); test: SSTR4 I-125 somatostatin competition binding assay (membranes from CHO-K1 cells overexpressing SSTR4); conditions: competition with I-125 labeled somatostatin
Sequence (P31391 whole entry): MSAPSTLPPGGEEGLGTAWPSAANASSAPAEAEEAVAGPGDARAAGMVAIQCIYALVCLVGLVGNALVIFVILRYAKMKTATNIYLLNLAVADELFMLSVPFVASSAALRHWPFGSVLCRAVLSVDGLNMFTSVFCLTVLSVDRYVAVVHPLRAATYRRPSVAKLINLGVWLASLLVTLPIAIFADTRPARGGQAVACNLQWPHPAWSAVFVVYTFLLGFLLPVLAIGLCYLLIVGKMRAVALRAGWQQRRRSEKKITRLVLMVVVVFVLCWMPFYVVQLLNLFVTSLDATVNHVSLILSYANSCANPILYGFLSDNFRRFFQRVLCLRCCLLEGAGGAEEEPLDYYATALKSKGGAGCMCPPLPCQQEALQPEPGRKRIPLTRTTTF
Number only, no unit.

As a guide, the following entries are already answered.
>  <molecule>
C[C@@H]1C[C@H](NC(=O)C(F)(F)COc2ncccc2OC(F)(F)F)CCN1 [Example 212]

>  <test_target>
SSTR4 (Homo sapiens (Human))

>  <parameter>
SSTR4 Binding pIC50

>  <measured_value>
7.4

$$$$
>  <molecule>
CCc1ccccc1OCC(C)(C)C(=O)NC1CCN(CC(=O)c2ccc(Cl)cc2)CC1 [Example 104]

>  <test_target>
SSTR4 (Homo sapiens (Human))

>  <parameter>
SSTR4 Binding pIC50

>  <measured_value>
8.0

$$$$
>  <molecule>
C[C@@H]1CN(C)CC[C@H]1NC(=O)C(C)(C)COc1ncccc1C(F)(F)F (relative stereo) [Example 11]

>  <test_target>
SSTR4 (Homo sapiens (Human))

>  <parameter>
SSTR4 Binding pIC50

>  <measured_value>
7.0

$$$$
>  <molecule>
CN1C[C@H](NC(=O)C(C)(C)COc2ncccc2C(F)(F)F)C2(CC2)C1 [Example 148]

>  <test_target>
SSTR4 (Homo sapiens (Human))

>  <parameter>
SSTR4 Binding pIC50

>  <measured_value>
7.4

$$$$
>  <molecule>
C[C@H]1C[C@@H](NC(=O)C(C)(C)COc2ncccc2C(F)(F)F)CCN1C (relative stereo) [Example 129]

>  <test_target>
SSTR4 (Homo sapiens (Human))

>  <parameter>
SSTR4 Binding pIC50

>  <measured_value>
6.8

$$$$
>  <molecule>
CN1CCC(NC(=O)C(C)(C)COc2ncccc2OC(F)(F)F)CC1 [Example 92]

>  <test_target>
SSTR4 (Homo sapiens (Human))

>  <parameter>
SSTR4 Binding pIC50

>  <measured_value>
6.8

$$$$
>  <molecule>
Cc1ccccc1OCC(C)(C)C(=O)NC1CCN(C)CC1 [Example 76]

>  <test_target>
SSTR4 (Homo sapiens (Human))

>  <parameter>
SSTR4 Binding pIC50

>  <measured_value>
6.7

$$$$
>  <molecule>
CN1CCC(NC(=O)C(C)(C)COc2ccccc2C2CC2)CC1 [Example 70]

>  <test_target>
SSTR4 (Homo sapiens (Human))

>  <parameter>
SSTR4 Binding pIC50

>  <measured_value>
7.6

$$$$

What value of SSTR4 Binding pIC50 has been recorded for this entry: C[C@H]1CNCC[C@@H]1NC(=O)C(C)(C)COc1ccccc1Cl [Example 190]
7.6

Okay, and C[C@@H]1C[C@H](NC(=O)C(C)(C)COc2ncccc2C2CC2)CCN1C [Example 147] ?
7.5

Okay, and Cc1cccnc1OCC(C)(C)C(=O)N[C@@H]1CN(C)C[C@H]1c1cnn(C)c1C (relative stereo) [Example 26] ?
7.3

Okay, and CN1CC[C@@H](NC(=O)C(C)(C)COc2ncccc2C2CC2)C1 [Example 53] ?
6.6

Okay, and C[C@@H]1CN(C)CC[C@H]1NC(=O)C(C)(C)COc1ccccc1Cl (relative stereo) [Example 186] ?
7.4

Okay, and CN1CC[C@H](NC(=O)C(C)(C)COc2ccccc2Cl)[C@@H](F)C1 [Example 188] ?
7.6
